Target: HIV-1RT (Human immunodeficiency virus type 1 group M subtype B)
Construct: HIV-1RT
Experiment: Chain elongation: addition of modified nucleotide to primer by reverse transcriptase (gel autoradiography)
Type: biochemical
Set-up: key: +: slow addition of modified nucleotide to the primer; ++: good addition of modified nucleotide to the primer; -: no addition of modified nucleotide to the primer
Settings: HIV-1RT 0.13 units; modified nucleotide 100 µM; dATP, dGTP, dCTP 1.0 µM each; 37°C
quantity.name: addition of modified nucleotide to the primer

Cc1cn([C@H]2C[C@H](O)[C@](COP(=O)(O)OP(=O)(O)OP(=O)(O)O)(C(=O)c3ccccc3)O2)c(=O)[nH]c1=O [R^1=C6H5]; ++
CCC(=O)[C@]1(COP(=O)(O)OP(=O)(O)OP(=O)(O)O)O[C@@H](n2cc(C)c(=O)[nH]c2=O)C[C@@H]1O [R^1=CH3CH2]; ++
CC(=O)[C@]1(COP(=O)(O)OP(=O)(O)OP(=O)(O)O)O[C@@H](n2cc(C)c(=O)[nH]c2=O)C[C@@H]1O [R^1=CH3]; ++
Cc1cn([C@H]2C[C@H](O)[C@](COP(=O)(O)OP(=O)(O)OP(=O)(O)O)(C(=O)C(C)(C)C)O2)c(=O)[nH]c1=O [R^1=t-butyl]; -

----------
Molecular target: T7 sequenase version 2 (Escherichia phage T7, UniProt P00581, DEL118-145)
Sequence (P00581 other isoform, or with tags, fused parts or gaps DEL118-145): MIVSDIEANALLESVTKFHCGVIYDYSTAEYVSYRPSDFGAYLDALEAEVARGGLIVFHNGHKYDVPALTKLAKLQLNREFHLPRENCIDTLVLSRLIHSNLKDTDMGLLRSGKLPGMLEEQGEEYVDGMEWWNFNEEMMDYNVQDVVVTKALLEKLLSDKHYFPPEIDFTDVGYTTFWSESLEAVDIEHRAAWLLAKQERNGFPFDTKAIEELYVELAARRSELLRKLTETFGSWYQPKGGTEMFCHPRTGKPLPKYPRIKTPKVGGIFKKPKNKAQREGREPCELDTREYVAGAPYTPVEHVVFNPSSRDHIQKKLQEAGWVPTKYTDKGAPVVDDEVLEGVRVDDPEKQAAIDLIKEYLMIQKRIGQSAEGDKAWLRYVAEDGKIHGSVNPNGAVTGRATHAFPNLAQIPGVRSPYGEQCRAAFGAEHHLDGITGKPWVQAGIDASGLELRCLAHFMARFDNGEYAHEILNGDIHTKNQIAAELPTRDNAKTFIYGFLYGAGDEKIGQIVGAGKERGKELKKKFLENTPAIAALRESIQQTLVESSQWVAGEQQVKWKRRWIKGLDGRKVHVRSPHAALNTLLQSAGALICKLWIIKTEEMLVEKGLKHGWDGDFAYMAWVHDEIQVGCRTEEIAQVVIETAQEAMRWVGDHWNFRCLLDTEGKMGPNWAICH
Sequence (P0AA25 2-109, stated change not applied, further chain): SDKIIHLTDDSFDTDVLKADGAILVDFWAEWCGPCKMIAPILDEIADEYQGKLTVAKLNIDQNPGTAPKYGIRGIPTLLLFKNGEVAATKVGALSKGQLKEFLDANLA
Experiment: Chain elongation: addition of modified nucleotide to primer by polymerase (gel autoradiography)
Type: biochemical
Set-up: key: +: slow addition of modified nucleotide to the primer; ++: good addition of modified nucleotide to the primer; -: no addition of modified nucleotide to the primer
Settings: T7 sequenase version 2 0.13 units; modified nucleotide 100 µM; dATP, dGTP, dCTP 2.5 µM each; 37°C
quantity.name: addition of modified nucleotide to the primer

Cc1cn([C@H]2C[C@H](O)[C@](COP(=O)(O)OP(=O)(O)OP(=O)(O)O)(C(=O)C(C)(C)C)O2)c(=O)[nH]c1=O [R^1=t-butyl]; -
CC(=O)[C@]1(COP(=O)(O)OP(=O)(O)OP(=O)(O)O)O[C@@H](n2cc(C)c(=O)[nH]c2=O)C[C@@H]1O [R^1=CH3]; ++
CCC(=O)[C@]1(COP(=O)(O)OP(=O)(O)OP(=O)(O)O)O[C@@H](n2cc(C)c(=O)[nH]c2=O)C[C@@H]1O [R^1=CH3CH2]; ++
Cc1cn([C@H]2C[C@H](O)[C@](COP(=O)(O)OP(=O)(O)OP(=O)(O)O)(C(=O)c3ccccc3)O2)c(=O)[nH]c1=O [R^1=C6H5]; -

----------
Target: Klenow (Escherichia coli, UniProt P00582)
Construct: Klenow
Sequence (P00582 324-928): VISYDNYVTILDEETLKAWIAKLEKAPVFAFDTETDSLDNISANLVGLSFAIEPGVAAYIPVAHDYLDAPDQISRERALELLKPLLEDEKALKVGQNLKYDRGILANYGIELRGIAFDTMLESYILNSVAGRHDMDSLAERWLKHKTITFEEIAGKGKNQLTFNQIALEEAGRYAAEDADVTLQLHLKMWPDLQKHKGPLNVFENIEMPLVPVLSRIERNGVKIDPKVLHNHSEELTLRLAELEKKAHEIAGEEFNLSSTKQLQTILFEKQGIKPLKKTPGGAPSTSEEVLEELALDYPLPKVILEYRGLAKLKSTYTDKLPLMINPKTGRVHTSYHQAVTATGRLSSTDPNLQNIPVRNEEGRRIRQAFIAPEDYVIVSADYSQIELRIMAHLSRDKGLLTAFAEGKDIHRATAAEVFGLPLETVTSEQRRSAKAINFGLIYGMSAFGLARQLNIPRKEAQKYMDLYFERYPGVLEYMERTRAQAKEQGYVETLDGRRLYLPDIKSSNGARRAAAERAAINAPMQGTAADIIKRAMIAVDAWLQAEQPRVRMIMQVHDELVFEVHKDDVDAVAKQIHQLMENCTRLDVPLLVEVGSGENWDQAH
Experiment: Chain elongation: addition of modified nucleotide to primer by polymerase (gel autoradiography)
Type: biochemical
Parameters: key: +: slow addition of modified nucleotide to the primer; ++: good addition of modified nucleotide to the primer; -: no addition of modified nucleotide to the primer
Details: Klenow 1.5 units; modified nucleotide 100 µM; dATP, dGTP, dCTP 0.5 µM each; 37°C
quantity.name: addition of modified nucleotide to the primer

CC(=O)[C@]1(COP(=O)(O)OP(=O)(O)OP(=O)(O)O)O[C@@H](n2cc(C)c(=O)[nH]c2=O)C[C@@H]1O [R^1=CH3]; ++
CCC(=O)[C@]1(COP(=O)(O)OP(=O)(O)OP(=O)(O)O)O[C@@H](n2cc(C)c(=O)[nH]c2=O)C[C@@H]1O [R^1=CH3CH2]; +
Cc1cn([C@H]2C[C@H](O)[C@](COP(=O)(O)OP(=O)(O)OP(=O)(O)O)(C(=O)c3ccccc3)O2)c(=O)[nH]c1=O [R^1=C6H5]; -
Cc1cn([C@H]2C[C@H](O)[C@](COP(=O)(O)OP(=O)(O)OP(=O)(O)O)(C(=O)C(C)(C)C)O2)c(=O)[nH]c1=O [R^1=t-butyl]; -

----------
Molecular target: M-MuLV RT (Moloney murine leukemia virus, UniProt P03355)
Construct: M-MuLV RT
Assay: Chain elongation: addition of modified nucleotide to primer by reverse transcriptase (gel autoradiography)
Assay type: biochemical
Design: key: +: slow addition of modified nucleotide to the primer; ++: good addition of modified nucleotide to the primer; -: no addition of modified nucleotide to the primer
Details: M-MuLV RT 9 units; modified nucleotide 100 µM; dATP, dGTP, dCTP 15.0 µM each; 37°C
quantity.name: addition of modified nucleotide to the primer

CCC(=O)[C@]1(COP(=O)(O)OP(=O)(O)OP(=O)(O)O)O[C@@H](n2cc(C)c(=O)[nH]c2=O)C[C@@H]1O [R^1=CH3CH2]; ++
Cc1cn([C@H]2C[C@H](O)[C@](COP(=O)(O)OP(=O)(O)OP(=O)(O)O)(C(=O)C(C)(C)C)O2)c(=O)[nH]c1=O [R^1=t-butyl]; -
Cc1cn([C@H]2C[C@H](O)[C@](COP(=O)(O)OP(=O)(O)OP(=O)(O)O)(C(=O)c3ccccc3)O2)c(=O)[nH]c1=O [R^1=C6H5]; -
CC(=O)[C@]1(COP(=O)(O)OP(=O)(O)OP(=O)(O)O)O[C@@H](n2cc(C)c(=O)[nH]c2=O)C[C@@H]1O [R^1=CH3]; ++

----------
Test system: AMV RT
Experiment: Chain elongation: addition of modified nucleotide to primer by reverse transcriptase (gel autoradiography)
Type: biochemical
Design: key: +: slow addition of modified nucleotide to the primer; ++: good addition of modified nucleotide to the primer; -: no addition of modified nucleotide to the primer
Details: AMV RT 2.0 units; modified nucleotide 100 µM; dATP, dGTP, dCTP 0.5 µM each; 37°C
quantity.name: addition of modified nucleotide to the primer

Cc1cn([C@H]2C[C@H](O)[C@](COP(=O)(O)OP(=O)(O)OP(=O)(O)O)(C(=O)c3ccccc3)O2)c(=O)[nH]c1=O; ++
CC(=O)[C@]1(COP(=O)(O)OP(=O)(O)OP(=O)(O)O)O[C@@H](n2cc(C)c(=O)[nH]c2=O)C[C@@H]1O; ++
Cc1cn([C@H]2C[C@H](O)[C@](COP(=O)(O)OP(=O)(O)OP(=O)(O)O)(C(=O)C(C)(C)C)O2)c(=O)[nH]c1=O; -
CCC(=O)[C@]1(COP(=O)(O)OP(=O)(O)OP(=O)(O)O)O[C@@H](n2cc(C)c(=O)[nH]c2=O)C[C@@H]1O; ++
